- Test system: Mycobacterium tuberculosis variant bovis
- EXPERIMENT: Antimycobacterial activity against Mycobacterium bovis assessed as 90 percent growth inhibition measured after 120 hrs by turbidometric analysis
- Assay type: functional
Activity calls are given as the source filed them. The rule behind the calls is not given here.

COMPOUND: COc1nc2ccc(Br)cc2cc1C(c1ccccc1)n1cc(-c2ccc(F)cc2)nn1 (centres undefined)
MIC90: inactive
--
COMPOUND: COc1nc2ccc(Br)cc2cc1C(c1ccccc1)n1cc(-c2ccccc2)nn1 (centres undefined)
MIC90: 161 µM
--
COMPOUND: COc1nc2ccc(Br)cc2cc1C(c1ccccc1)n1cc(CCO)nn1 (centres undefined)
MIC90: 133 µM
--
COMPOUND: CO[C@H]1/C=C/O[C@@]2(C)Oc3c(C)c(O)c4c(O)c(c(/C=N/N5CCN(C)CC5)c(O)c4c3C2=O)NC(=O)/C(C)=C\C=C\[C@H](C)[C@H](O)[C@@H](C)[C@@H](O)[C@@H](C)[C@H](OC(C)=O)[C@@H]1C [RIFAMPIN]
MIC90: 2.2 µM
--
COMPOUND: COc1nc2ccc(Br)cc2cc1C(c1ccccc1)n1cc(CCCO)nn1 (centres undefined)
MIC90: inactive
--
COMPOUND: CCCCCCc1cn(C(c2ccccc2)c2cc3cc(Br)ccc3nc2OC)nn1 (centres undefined)
MIC90: 44.4 µM
--
COMPOUND: CCCc1cn(C(c2ccccc2)c2cc3cc(Br)ccc3nc2OC)nn1 (centres undefined)
MIC90: 45.2 µM
--
COMPOUND: COc1nc2ccc(Br)cc2cc1C(c1ccccc1)n1cc(-c2ccccc2F)nn1 (centres undefined)
MIC90: inactive
--
COMPOUND: CCCCCc1cn(C(c2ccccc2)c2cc3cc(Br)ccc3nc2OC)nn1 (centres undefined)
MIC90: 80.9 µM

###

- System: Mycobacterium tuberculosis variant bovis
- EXPERIMENT: Antimycobacterial activity against Mycobacterium bovis assessed as 90 percent growth inhibition measured after 120 hrs by turbidometric analysis
- Format: functional

MOLECULE: COc1nc2ccc(Br)cc2cc1C(c1ccccc1)n1cc(CCCCCO)nn1 (stereo not drawn)
MIC90: 59.6 µM

MOLECULE: COc1nc2ccc(Br)cc2cc1[C@@H](c1ccccc1)[C@@](O)(CCN(C)C)c1cccc2ccccc12 [BEDAQUILINE]
MIC90: 0.15 µM
